I'd appreciate it if you could supply pIC50 values for the items below.
measured target: 5-lipoxygenase of the peritoneal leukocytes of rabbits (PMNs) (Oryctolagus cuniculus)
Construct: metabolism of ^14 C-AA in the peritoneal PMNs of rabbits; endogenous in cells; host or cells: rabbit peritoneal polymorphonuclear leukocytes (suspension)
Sequence (G1SNX0 1-674): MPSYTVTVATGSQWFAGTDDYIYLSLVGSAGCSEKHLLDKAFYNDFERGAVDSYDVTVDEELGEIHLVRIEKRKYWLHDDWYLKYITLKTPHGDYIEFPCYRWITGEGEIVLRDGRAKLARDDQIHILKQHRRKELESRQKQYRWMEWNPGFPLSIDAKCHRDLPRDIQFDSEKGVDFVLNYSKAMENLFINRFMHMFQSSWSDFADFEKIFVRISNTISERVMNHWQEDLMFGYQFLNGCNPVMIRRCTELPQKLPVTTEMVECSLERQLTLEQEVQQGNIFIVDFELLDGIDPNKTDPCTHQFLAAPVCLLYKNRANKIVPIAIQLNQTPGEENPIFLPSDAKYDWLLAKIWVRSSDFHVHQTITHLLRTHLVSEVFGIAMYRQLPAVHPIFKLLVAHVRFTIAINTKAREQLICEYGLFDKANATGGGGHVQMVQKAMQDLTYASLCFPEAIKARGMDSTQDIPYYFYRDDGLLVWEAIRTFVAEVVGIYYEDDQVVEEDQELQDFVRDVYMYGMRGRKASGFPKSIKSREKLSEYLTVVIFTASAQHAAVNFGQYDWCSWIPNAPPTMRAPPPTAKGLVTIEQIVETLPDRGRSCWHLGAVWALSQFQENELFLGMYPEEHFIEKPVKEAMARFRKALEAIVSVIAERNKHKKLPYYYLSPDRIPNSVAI
assay explanation: Inhibition of the 5-lipoxygenase of the peritoneal leukocytes of rabbits (PMNs), metabolism of 14C-arachidonate
Format: cell-based
test conditions: rabbit peritoneal PMNs; 5 HETE formation; n.i. = no inhibition; read-out: IC50 in the PMNs, 5 HETE
pIC50: −log10 of the molar value.

Q: Would you kindly share the measured pIC50 for CC(=NNc1nccs1)c1ccccc1N ?
A: > 4.60

Q: Would you kindly share the measured pIC50 for CC(=NNc1nccs1)c1cccs1 [Example 3d] ?
A: > 5.70

Q: Would you kindly share the measured pIC50 for CCOC(=O)CCCC(C)=NNc1nccs1 ?
A: > 5.70

Q: Would you kindly share the measured pIC50 for CC(=NNc1nccs1)c1cccs1 [Example 3b] ?
A: 5.00
